assay: collision cross section in nitrogen (drift tube, single-field); higher = larger gas-phase ion size; conditions: ion type: [M-H]; ion source: ESI; ion mode: Negative;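 also: chemical standards at 10 µM analysed by drift tube IMS-QTOF MS in about 3.95 torr nitrogen, mean of duplicate injections differing ≤1%, mass error below 10 ppm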
Counter-ions that a name gives are not always drawn.
readout_label: collision cross section in nitrogen (Å²)

| compound | value |
| --- | --- |
| O=C(Nc1ccc(Cl)cc1)Nc1ccc(Cl)c(Cl)c1 | 169 |
| CC1=NN(c2ccc(C)cc2)C(=O)C1 | 144.4 |
| CC(C)NCC(O)c1ccc(O)c(O)c1 (stereo not drawn) [Isoproterenol hydrochloride] | 151.9 |
| COc1ncc(F)c2nc(S(=O)(=O)Nc3c(F)cccc3F)nn12 | 174.5 |
| CCOc1cc(C=O)ccc1O [3-Ethoxy-4-hydroxybenzaldehyde] | 133.6 |
| CSc1nnc(C(C)(C)C)c(=O)[nH]1 | 144.8 |
| C[CH2][Hg][S]c1ccccc1C(=O)O | 146.9 |
| COc1cc2c(c(OC)c1OC)-c1ccc(OC)c(=O)cc1[C@@H](NC(C)=O)CC2 | 197.3 |
| CCCCCC(=O)O[C@]1(C(C)=O)CC[C@H]2[C@@H]3CCC4=CC(=O)CC[C@]4(C)[C@H]3CC[C@@]21C | 212.9 |
| O=C(O)c1ccc(Cl)cc1C(=O)O [Monosodium hydrogen 4-chlorophthalate] | 132.5 |
| Nc1c(Cl)c(Cl)c(Cl)c(Cl)c1Cl | 138.4 |
| CNC[C@H](O)c1cccc(O)c1 [(-)-Phenylephrine hydrochloride] | 138.7 |
| Oc1cc(Cl)c(Cl)cc1Cl | 128.7 |
| N=C(NCCCCCCNC(=N)NC(=N)Nc1ccc(Cl)cc1)NC(=N)Nc1ccc(Cl)cc1 [Chlorhexidine diacetate] | 233.6 |
| CCCCCCOC(=O)CCC [Hexyl butyrate] | 149.7 |
| N=C1C=CC(=C(c2ccc(N)cc2)c2ccc(N)cc2)C=C1 [C.I. Basic Red 9 monohydrochloride] | 177.9 |
| CCCN(CCC)c1c([N+](=O)[O-])cc(S(N)(=O)=O)cc1[N+](=O)[O-] | 177.3 |
| CC#C[C@]1(O)CC[C@H]2[C@@H]3CCC4=CC(=O)CCC4=C3[C@@H](c3ccc(N(C)C)cc3)C[C@@]21C | 221.9 |
| CS(=O)(=O)c1ccc([C@@H](CC2CCCC2)C(=O)Nc2cnccn2)cc1Cl | 202.7 |
| CC(=O)CC(c1ccccc1)c1c(O)c2ccccc2oc1=O (stereo not drawn) | 172.2 |
| COC(=O)Nc1ccc(Cl)c(Cl)c1 | 140.9 |
| O=C1OC(=O)c2c(Cl)c(Cl)c(Cl)c(Cl)c21 [Tetrachlorophthalic anhydride] | 158.1 |
| O=C1NC(=O)C2CC=CCC12 (stereo not drawn) [1,2,3,6-Tetrahydrophthalimide] | 132.6 |
| CCCC(C)c1ccccc1O (stereo not drawn) | 138.6 |
| CCCCCCCCCc1ccc(O)cc1 | 161.4 |
| CCOP(=O)(NC(C)C)Oc1ccc(S(C)(=O)=O)c(C)c1 (stereo not drawn) | 176.7 |
| CCCCC(CC)C(=O)OC(C)C (stereo not drawn) [Propan-2-yl 2-ethylhexanoate] | 151.3 |
| O=C(O)c1ccccc1C(=O)Nc1cccc2ccccc12 | 168.6 |

---

Listed here: items and their measured collision cross section in nitrogen.
assay: collision cross section in nitrogen (drift tube, single-field); higher = larger gas-phase ion size; conditions: ion type: [M+Na]; ion source: ESI; ion mode: Positive
Structures can show the parent of a compound that is named as a salt.
readout_label: collision cross section in nitrogen (Å²)

| molecule | value |
| --- | --- |
| Cc1nc(N(C)C)nc(OC(=O)N(C)C)c1C [Pirimicarb] | 164.2 |
| CN(CCOc1ccc(CC2SC(=O)NC2=O)cc1)c1ccccn1 (stereo unspecified) [Rosiglitazone maleate] | 182.7 |
| Cc1ccccc1OP(=O)(Oc1ccccc1)Oc1ccccc1 [Cresyl diphenyl phosphate] | 188.4 |
| CCOP(=O)(CCP(=O)(OCC)OCC)OCC [Tetraethyl ethylenebisphosphonate] | 172.3 |
| COCC(=O)N(c1c(C)cccc1C)[C@H](C)C(=O)OC [Metalaxyl-M] | 168.8 |
| CCC(=O)Oc1ccc(/C(CC)=C(\CC)c2ccc(OC(=O)CC)cc2)cc1 [Diethylstilbestrol dipropionate] | 193.9 |
| CCOC(=O)COc1ccc2c(c1)CC(NCC(O)c1cccc(Cl)c1)CC2 (stereo unspecified) | 198.6 |
| C[C@]12C=CC3=C4CCC(=O)C=C4CC[C@H]3[C@@H]1CC[C@@H]2O [17beta-Trenbolone] | 192.3 |
| O=C1CCCCCN1SSN1CCCCCC1=O [1,1'-Disulfanediyldiazepan-2-one] | 168.7 |
| CC1=NN(c2ccc(C)cc2)C(=O)C1 [3-Methyl-1-p-tolyl-5-pyrazolone] | 156.9 |
| c1ccc2sc(SN(C3CCCCC3)C3CCCCC3)nc2c1 [N,N-Dicyclohexyl-2-benzothiazolesulfenamide] | 193.7 |
